Sourced from patent US6610846B1

property label: melting point

So what does the record say about melting point for CS(=O)(=O)c1ccc(C(CC2CCCC2)C(=O)Nc2nccs2)cc1C#N (centres unmarked) ? 145 to 148 °C

Would you mind telling me what melting point value was observed for O=C(Nc1nncs1)C(CC1CCCC1)c1ccc(Cl)c(Cl)c1 (centres unmarked) ? 90 to 91 °C

Record request: melting point value, item CCCCS(=O)(=O)c1ccc(C(CC2CCCC2)C(=O)Nc2nccs2)cc1 (centres unmarked) 163 to 165 °C

If you can, please state the reported melting point value of O=C(Nc1ccccn1)C(CC1CCCC1)c1ccc(Cl)c([N+](=O)[O-])c1 (centres unmarked) . 48 to 52 °C

Using the record for CS(=O)(=O)c1ccc(C(CC2CCCC2)C(=O)Nc2cnccn2)cc1C#N (centres unmarked) , report its melting point. 88 to 93 °C

----------
Hi there, I'd appreciate the recorded melting point for every entry that follows.

So what's the measured melting point for this one? O=C(Nc1nccs1)C(CC1CCCC1)c1cccc([N+](=O)[O-])c1 (centres unmarked) 171 to 174 °C

Query (compound): O=C(Nc1nccs1)C(CC1CCCC1)c1ccc(C(F)(F)F)c(F)c1 (centres unmarked) ; field requested: melting point 194 to 195 °C

# get_value(readout='melting point', item= O=C(Nc1ccc(Br)cn1)C(CC1CCCC1)c1ccc(S(=O)(=O)C(F)(F)F)cc1 (centres unmarked) ) 130 to 132 °C

Find the recorded melting point belonging to CS(=O)(=O)c1ccc(C(CC2CCCC2)C(=O)Nc2ccnc(=O)[nH]2)cc1C(F)(F)F (centres unmarked) and report it. 236 to 238 °C

For the compound CS(=O)(=O)c1ccc(C(CC2CCCC2)C(=O)Nc2nc(CCO)cs2)cc1 (centres unmarked) , what melting point is on record? 84 to 87 °C

Which melting point value belongs to O=C(Nc1nccs1)C(CC1CCCC1)c1ccc(O)c(O)c1 (centres unmarked) ? 170 to 173 °C

What value of measured melting point is listed for O=C(Nc1nccnn1)C(CC1CCCC1)c1ccc(Cl)c(Cl)c1 (centres unmarked) ? 81 to 83 °C

Look at this compound and give its reported melting point. O=C(Nc1ccc(Br)cn1)C(CC1CCCC1)c1ccc(Cl)c([N+](=O)[O-])c1 (centres unmarked) 128 to 130 °C

----------
Exercise: for every item that follows, state its recorded melting point.

Any idea what melting point was measured for COc1ccc(C(CC2CCCC2)C(=O)Nc2nccs2)cc1 (centres unmarked) ? 166 to 167 °C

Value lookup for melting point; key = CS(=O)(=O)c1ccc(C(CC2CCCC2)C(=O)Nc2ccccn2)cc1[N+](=O)[O-] (centres unmarked) 92 to 95 °C

Quick check: melting point of "CS(=O)(=O)c1ccc([C@@H](CC2CCCC2)C(=O)Nc2ccncn2)cc1C(F)(F)F" ? 85 to 90 °C

Recorded melting point for CSc1ccc(C(CC2CCCC2)C(=O)Nc2ccccn2)cc1 (centres unmarked) , please? 127 to 128 °C

What value of melting point has been reported for the following compound? CS(=O)(=O)c1ccc(C(CC2CCCC2)C(=O)Nc2nc(CO)cs2)cc1 (centres unmarked) 124 to 126 °C

Consider the compound CS(=O)(=O)c1ccc(C(CC2CCCC2)C(=O)Nc2ccncn2)cc1[N+](=O)[O-] (centres unmarked) and give its measured melting point. 91 to 95 °C

Given the entry CS(=O)(=O)c1ccc(C(CC2CCCC2)C(=O)Nc2ccc(Br)cn2)cc1C(F)(F)F (centres unmarked) , report its measured melting point. 81 to 85 °C

For COC(=O)c1ccc(C(CC2CCCC2)C(=O)Nc2nccs2)cc1 (centres unmarked) , what is its reported melting point? 54 to 56 °C

// query melting point value for entry O=C(Nc1ccc([N+](=O)[O-])cn1)C(CC1CCCC1)c1ccc(F)c(C(F)(F)F)c1 (centres unmarked) 121 to 122 °C

What does the data say about its melting point? Entry: O=C(Nc1nc(CO)cs1)C(CC1CCCC1)c1ccc(Cl)c(Cl)c1 (centres unmarked) 88 to 90 °C

Data request, read-out melting point, for "CS(=O)(=O)c1ccc([C@@H](CC2CCCC2)C(=O)Nc2ncc(Cl)s2)cc1" 83 to 88 °C

Give the measured melting point of COC(=O)c1csc(NC(=O)C(CC2CCCC2)c2cccc(Cl)c2)n1 (centres unmarked) . 95 to 98 °C

Would you mind telling me what melting point value was observed for CS(=O)(=O)c1ccc(C(CC2CCCC2)C(=O)Nc2ccncn2)cc1Br (centres unmarked) ? 75 to 80 °C

I am curious: what melting point value has been reported for NS(=O)(=O)c1ccc(C(CC2CCCC2)C(=O)Nc2nccs2)cc1 (centres unmarked) ? 179 to 181 °C

Entry C[S+]([O-])c1ccc(C(CC2CCCC2)C(=O)Nc2nccs2)cc1 (centres unmarked) has what melting point? 170 to 173 °C

// query melting point value for entry CS(=O)(=O)c1ccc(C(CC2CCCC2)C(=O)Nc2nccs2)cc1Br (centres unmarked) 106 to 107 °C

Could you share which melting point value was measured for CS(=O)(=O)c1ccc(C(CC2CCCC2)C(=O)Nc2nccs2)cc1C(F)(F)F (centres unmarked) ? 95 to 100 °C

Would you kindly share the measured melting point for "O=C(Nc1ccncn1)[C@H](CC1CCCC1)c1ccc(Cl)c(Cl)c1" ? 166.5 to 169.3 °C

Need melting point of COc1ccc(C(CC2CCCC2)C(=O)Nc2nccs2)cc1OC (centres unmarked) , thanks. 50 to 52 °C

Request the reported melting point associated with CS(=O)(=O)c1ccc(C(CC2CCCC2)C(=O)Nc2ccccn2)cc1F (centres unmarked) 76 to 79 °C

What melting point value was documented for this compound, O=C(Nc1ccncn1)C(CC1CCCC1)c1cccc(C(F)(F)F)c1 (centres unmarked) ? 113 to 115 °C

Item under review: CS(=O)(=O)c1ccc(C(CC2CCCC2)C(=O)Nc2ncc[nH]2)cc1[N+](=O)[O-] (centres unmarked) . Reported melting point? 243 to 244 °C

Recorded melting point of CS(=O)(=O)c1ccc(C(CC2CCCC2)C(=O)Nc2ccc(C(=O)O)cn2)cc1 (centres unmarked) , please. 191 to 193 °C

What melting point value was documented for this compound, O=C(Nc1nccs1)C(CC1CCCC1)c1ccc(F)c(C(F)(F)F)c1 (centres unmarked) ? 125 to 127 °C

Using the record for O=C(O)Cc1csc(NC(=O)C(CC2CCCC2)c2ccc(Cl)c(Cl)c2)n1 (centres unmarked) , report its melting point. 100 to 102 °C

What value of measured melting point is listed for Nc1cccc(C(CC2CCCC2)C(=O)Nc2nccs2)c1 (centres unmarked) ? 158 to 160 °C

Fill in the blank: the reported melting point of O=C(Nc1ncccn1)C(CC1CCCC1)c1ccc(Cl)c(Cl)c1 (centres unmarked) is ____. 103 to 105 °C

// melting point lookup, key: CS(=O)(=O)c1ccc(C(CC2CCCC2)C(=O)Nc2nccs2)cc1NO (centres unmarked) 124 to 126 °C

Name the recorded melting point for CS(=O)(=O)c1ccc(C(CC2CCCC2)C(=O)Nc2ncc(Cl)s2)cc1 (centres unmarked) . 76 to 79 °C

Give the measured melting point of O=C(Nc1nccs1)C(CC1CCCC1)c1cccc(C(F)(F)F)c1 (centres unmarked) . 134 to 136 °C

Would you mind telling me what melting point value was observed for Nc1ccc(C(CC2CCCC2)C(=O)Nc2nccs2)cc1 (centres unmarked) ? 102 to 107 °C

Reported melting point, compound COc1cccc(C(CC2CCCC2)C(=O)Nc2nccs2)c1 (centres unmarked) : ____ 44 to 45 °C

Could you share which melting point value was measured for CS(=O)(=O)c1ccc(C(CC2CCCC2)C(=O)Nc2ncc[nH]2)cc1Br (centres unmarked) ? > 210 °C (dec.)

Looking for the measured melting point of O=C(Nc1ccccn1)C(CC1CCCC1)c1ccc(C(F)(F)F)c(F)c1 (centres unmarked) , can you help? 40 to 44 °C

// lookup melting point for "O=C(Nc1ccc(Br)cn1)[C@H](CC1CCCC1)c1ccc(Cl)c(Cl)c1" 107.3 to 109.9 °C

----------
property label: melting point

Please look up its melting point: CS(=O)(=O)c1ccc(C(CC2CCCC2)C(=O)Nc2ccccn2)cc1S(C)(=O)=O (centres unmarked) 107 to 110 °C

Which melting point is listed for CS(=O)(=O)c1ccc(C(CC2CCCC2)C(=O)Nc2nccs2)cc1S(C)(=O)=O (centres unmarked) [Example 79] ? 104 to 107 °C

Fill in: melting point of Cc1cc(NC(=O)C(CC2CCCC2)c2ccc(Cl)c(Cl)c2)no1 (centres unmarked) [Example 56] is ___ 84 to 86 °C

Reported melting point, molecule CS(=O)(=O)c1ccc([C@@H](CC2CCCC2)C(=O)Nc2cc[nH]c(=O)n2)cc1Cl [Example 145] : ____ > 200 °C

Find the recorded melting point belonging to O=C(Nc1nccs1)C(CC1CCCC1)c1ccc(OC(F)(F)F)cc1 (centres unmarked) [Example 112] and report it. 168 to 170 °C

Consider the molecule O=C(Nc1nccs1)C(CC1CCCC1)c1ccc(S(=O)(=O)C(F)(F)F)cc1 (centres unmarked) [Example 11(A)] and give its measured melting point. 189 to 191 °C

Reported melting point for COc1ccc(C(CC2CCCC2)C(=O)Nc2nccs2)cc1F (centres unmarked) [Example 118] : what is it? 51 to 53 °C

May I ask what melting point has been recorded for CS(=O)(=O)c1ccc(C(CC2CCCC2)C(=O)Nc2cnccn2)cc1[N+](=O)[O-] (centres unmarked) [Example 161] ? 104 to 108 °C

So what's the measured melting point for this one? N#Cc1ccc(C(CC2CCCC2)C(=O)Nc2nccs2)cc1 (centres unmarked) [Example 84(A)] 64 to 66 °C

Look up melting point: COCS(=O)(=O)c1ccc(C(CC2CCCC2)C(=O)Nc2nccs2)cc1 (centres unmarked) [Example 125] 157 to 160 °C

Requested field: melting point. Item: O=C(O)c1ccc(NC(=O)C(CC2CCCC2)c2cccc(Cl)c2)nc1 (centres unmarked) [Example 120] 251 to 255 °C

// melting point lookup, key: O=C(Nc1ccc(O)cn1)C(CC1CCCC1)c1ccc(Cl)c(Cl)c1 (centres unmarked) [Example 51] 79 to 81 °C

// returns reported melting point for input O=C(Nc1nccs1)C(CC1CCCC1)c1ccc(C(F)(F)F)cc1 (centres unmarked) [Example 8] 210 to 212 °C

Given the entry CS(=O)(=O)c1ccc(C(CC2CCCC2)C(=O)Nc2ccc(Br)cn2)cc1Br (centres unmarked) [Example 74] , report its measured melting point. 83 to 86 °C

What value of melting point has been recorded for this entry: CCS(=O)(=O)c1ccc(C(CC2CCCC2)C(=O)Nc2nccs2)cc1 (centres unmarked) [Example 77] 178 to 179 °C

Which melting point is reported for this molecule? O=C(Nc1nccs1)C(CC1CCCC1)c1cccc(Cl)c1 (centres unmarked) [Example 6] 138.8 to 141.2 °C

Return reported melting point; argument: O=C(Nc1nccs1)C(CC1CCCC1)c1cccc(S(=O)(=O)C(F)(F)F)c1 (centres unmarked) [Example 69] 61 to 64 °C

Fill in the blank: the reported melting point of CNC(=O)c1ccc(NC(=O)C(CC2CCCC2)c2ccc(Cl)c(Cl)c2)nc1 (centres unmarked) [Example 103] is ____. 229.1 to 231.7 °C

What value of melting point has been reported for the following molecule? CS(=O)(=O)c1ccc(C(CC2CCCC2)C(=O)Nc2ccccn2)cc1C#N (centres unmarked) [Example 76] 87 to 90 °C

Any idea what melting point was measured for CS(=O)(=O)c1ccc(C(CC2CCCC2)C(=O)Nc2nccs2)cc1N (centres unmarked) [Example 68] ? 207 to 209 °C

Reported melting point for O=C(Nc1ccc(C(F)(F)F)cn1)[C@H](CC1CCCC1)c1ccc(Cl)c(Cl)c1 [Example 101] : what is it? 113.8 to 117.5 °C

What measured melting point goes with CCS(=O)(=O)c1ccc(C(CC2CCCC2)C(=O)Nc2ccccn2)cc1 (centres unmarked) [Example 78] ? 144 to 145 °C

Can you share its melting point? I mean this molecule: COC(=O)c1csc(NC(=O)C(CC2CCCC2)c2ccc(Cl)cc2)n1 (centres unmarked) [Example 32] 156 to 157 °C

Consider the molecule O=C(Nc1nccs1)C(CC1CCCC1)c1ccc(SC(F)(F)F)cc1 (centres unmarked) [Example 10] and give its measured melting point. 58 to 60 °C

Find the recorded melting point belonging to Cc1nccc(NC(=O)C(CC2CCCC2)c2ccc(S(C)(=O)=O)c(C#N)c2)n1 (centres unmarked) [Example 152] and report it. 89 to 94 °C

Quick check: melting point of CS(=O)(=O)c1ccc(C(CC2CCCC2)C(=O)Nc2ncc(C(N)=O)s2)cc1 (centres unmarked) [Example 134] ? 155 to 160 °C

Look up melting point: CS(=O)(=O)c1ccc(C(CC2CCCC2)C(=O)Nc2ccc(Br)cn2)cc1[N+](=O)[O-] (centres unmarked) [Example 66] 80 to 83 °C

Please give the measured melting point for this molecule: Cc1nccc(NC(=O)C(CC2CCCC2)c2ccc(S(C)(=O)=O)c([N+](=O)[O-])c2)n1 (centres unmarked) [Example 159] 96 to 99 °C

So what does the record say about melting point for CSc1ccc(C(CC2CCCC2)C(=O)Nc2nccs2)cc1 (centres unmarked) [Example 9] ? 195 to 196 °C

Query (molecule): O=C(Nc1nc(CCO)cs1)C(CC1CCCC1)c1ccc(Cl)c(Cl)c1 (centres unmarked) [Example 16] ; field requested: melting point 85 to 86 °C

Could you share which melting point value was measured for CS(=O)(=O)c1ccc([C@@H](CC2CCCC2)C(=O)Nc2cnccn2)cc1 [Example 127] ? 75 to 80 °C

# get_value(readout='melting point', item= O=C(Nc1nccs1)C(CC1CCCC1)c1ccc([N+](=O)[O-])cc1 (centres unmarked) [Example 22(A)] ) 186 to 187 °C

Return reported melting point; argument: CS(=O)(=O)c1ccc(C(CC2CCCC2)C(=O)Nc2cc[nH]c(=O)n2)cc1[N+](=O)[O-] (centres unmarked) [Example 160] 256 to 258 °C (dec.)

I have this molecule here, O=C(Nc1nccs1)C(CC1CCCC1)c1ccc(O)c(F)c1 (centres unmarked) [Example 119] , and I need its recorded melting point. 199 to 201 °C

Entry O=C(Nc1ccccn1)C(CC1CCCC1)c1ccc([N+](=O)[O-])cc1 (centres unmarked) [Example 39(A)] has what melting point? 152 to 154 °C
